Assay: Human HepG2 cell viability assay in 384 well format
Type: toxicity, cell-based
Set-up: dose 125 nL, time 70.5 hour; concentration not given beside the values
Details: HepG2 cells, read-out: Inhibition
Below, each entry is listed alongside its reported cytotoxicity at 70.5 h.
experimental_readout: cytotoxicity at 70.5 h (%)

[[record]]
compound = "CCN(CC)S(=O)(=O)N1CCCC(c2nccn2Cc2ccncc2)C1 (centres undefined)"
experimental_readout = "cytotoxicity at 70.5 h"
observed = 8.67

[[record]]
compound = "CCOCCn1c(=O)n(CCC=C(C)C)c2cc(C(=O)O)cnc21"
experimental_readout = "cytotoxicity at 70.5 h"
observed = -4.64

[[record]]
compound = "CC(C)c1nsc(NC2CCOC3(CCCC3)C2)n1 (centres undefined)"
experimental_readout = "cytotoxicity at 70.5 h"
observed = -0.215

[[record]]
compound = "CCOc1ccc(NCc2cnc(N3CCN(C)CC3)nc2)cn1"
experimental_readout = "cytotoxicity at 70.5 h"
observed = -1.43

[[record]]
compound = "CC(=O)N1N=C(c2cccs2)OC1C(=O)NCc1ccc(C)o1 (centres undefined)"
experimental_readout = "cytotoxicity at 70.5 h"
observed = -1.09

[[record]]
compound = "CN(C)C(=O)CNC(=O)c1nc2c(s1)CCCN2Cc1ccccc1"
experimental_readout = "cytotoxicity at 70.5 h"
observed = -2.15

[[record]]
compound = "COc1ccc(Cl)cc1CCNC(=O)NCc1cnn(C)c1C"
experimental_readout = "cytotoxicity at 70.5 h"
observed = -4.39

[[record]]
compound = "CC(C)C1CCC(N2CCN(CCS(C)(=O)=O)CC2)CC1 (centres undefined)"
experimental_readout = "cytotoxicity at 70.5 h"
observed = -4.3

[[record]]
compound = "COCCC(=O)N1CCCC(c2noc3nc(C)cc(C(F)(F)F)c23)C1 (centres undefined)"
experimental_readout = "cytotoxicity at 70.5 h"
observed = -5.21

[[record]]
compound = "COc1ccc(CCC2CCCCN2)cc1OC (centres undefined)"
experimental_readout = "cytotoxicity at 70.5 h"
observed = 19.8

[[record]]
compound = "Cc1cc(C)n(CC2CN(Cc3cnc(C)s3)CCO2)n1 (centres undefined)"
experimental_readout = "cytotoxicity at 70.5 h"
observed = 16.8

[[record]]
compound = "Cc1cc(C)cc(C(=O)NCCCNc2ncccn2)c1"
experimental_readout = "cytotoxicity at 70.5 h"
observed = 101

[[record]]
compound = "CC1c2ncc(COCC3CCCC3)n2CCN1S(=O)(=O)N(C)C (centres undefined)"
experimental_readout = "cytotoxicity at 70.5 h"
observed = 0.773

[[record]]
compound = "CN(Cc1ccc(F)cc1)C(=O)CN1CCCCC1Cn1cncn1 (centres undefined)"
experimental_readout = "cytotoxicity at 70.5 h"
observed = -3.07

[[record]]
compound = "CC(C)NC(=O)C1CN(C(N)=O)Cc2ccnn2C1 (centres undefined)"
experimental_readout = "cytotoxicity at 70.5 h"
observed = -17.9

[[record]]
compound = "COCCN1CC(Nc2nc(C(C)C)nc3c2cnn3C)CC1=O (centres undefined)"
experimental_readout = "cytotoxicity at 70.5 h"
observed = -0.509

[[record]]
compound = "CC(C)CC(=O)NS(=O)(=O)c1ccc(C#N)cc1C(F)(F)F"
experimental_readout = "cytotoxicity at 70.5 h"
observed = -3.13

[[record]]
compound = "COc1ccc(CCNC(=O)NCc2cccc(C(N)=O)c2)cc1OC"
experimental_readout = "cytotoxicity at 70.5 h"
observed = -15

[[record]]
compound = "CC(C)c1nccn1-c1cncc(C2CCCN(C3CCCCC3)C2)n1 (centres undefined)"
experimental_readout = "cytotoxicity at 70.5 h"
observed = -0.366

[[record]]
compound = "CC(=O)c1ccc(NC(=O)N[C@H](C(=O)O)C(C)C)cc1"
experimental_readout = "cytotoxicity at 70.5 h"
observed = -6.92

[[record]]
compound = "COc1ccc(C2CNCCN2C(=O)c2nccc3ccccc23)cc1 (centres undefined)"
experimental_readout = "cytotoxicity at 70.5 h"
observed = 5.97

[[record]]
compound = "COCC(C)(C)NS(=O)(=O)C1CS(=O)(=O)c2ccccc21 (centres undefined)"
experimental_readout = "cytotoxicity at 70.5 h"
observed = -17.4

[[record]]
compound = "CCCc1cc(C(=O)NCCN2C(=O)c3ccccc3C2=O)[nH]n1"
experimental_readout = "cytotoxicity at 70.5 h"
observed = -8.43

[[record]]
compound = "Cc1cc(C)n(C2CCCN(C(=O)Cn3ccc(=O)n(C)c3=O)C2)n1 (centres undefined)"
experimental_readout = "cytotoxicity at 70.5 h"
observed = -7.57

